So I've got a bunch of compounds here, and I need their TGI values.
- Tested on: NCI-H460 lung
- EXPERIMENT_NOTES: NCI tumour cell line growth inhibition, 48 h

Illustrative cases are given below, each with its answer.
COMPOUND | SYSTEM_UNDER_TEST | OBSERVED_RESULT
CC(=O)OC1COC(N2c3ccccc3[C@@H]3CCc4c([nH]c5ccccc45)[C@@H]32)C(OC(C)=O)C1OC(C)=O (mixture of isomers) | NCI-H460 lung | > 100 µM
c1cc2ccc1C1NCCCN1CCN1CCCNC1c1ccc(cc1)C1NCCCN1CCN1CCCNC21 (centres undefined) | NCI-H460 lung | > 100 µM
C[C@@](Br)(C(=O)O)[C@H](Br)C(=O)O | NCI-H460 lung | > 100 µM
COc1ccc(CNC(=O)c2ccc(-c3cc(-c4nnc(C)o4)ccc3C)cc2)cc1 | NCI-H460 lung | > 25 µM
O=C(/C=C/CC(O)(c1ccccc1)c1ccccc1)Nc1ccccc1Cl | NCI-H460 lung | > 100 µM
COC(=O)Cc1cc(=O)oc2c1C(=O)CCC2 | NCI-H460 lung | > 100 µM
COc1cc2c3c(c1OC)/C(=N/OS(=O)(=O)c1ccc(C)cc1)CC3N(S(=O)(=O)c1ccc(C)cc1)CC2 (centres undefined) | NCI-H460 lung | > 100 µM
Cn1c2ccccc2c2c3c(=O)[nH][nH]c(=O)c3c3c4ccccc4n(C)c3c21 | NCI-H460 lung | > 100 µM

// switching to the query compound
**Query** Value lookup for TGI; key = Cc1cc2c(-c3nc4ccccn4c3NC34CC5CC(CC(C5)C3)C4)c(O)c(O)cc2c(O)c1-c1c(C)cc2c(-c3nc4ccccn4c3NC34CC5CC(CC(C5)C3)C4)c(O)c(O)cc2c1O
**Result** 2.1 µM

###

- System: SK-MEL-2 melanoma
- EXPERIMENT_NOTES: NCI tumour cell line growth inhibition, 48 h
So I've got a bunch of compounds here, and I need their GI50 values.

Illustrative cases are given below, each with its answer.
COMPOUND | GI50
Cc1ccc2c(C(C[N+](=O)[O-])c3ccco3)c(-c3ccccc3)[nH]c2c1 (stereo unspecified) | 38.2 µM
COc1ccc(C2NC(=S)NC3=C2COc2ccc(F)cc23)cc1OC (stereo unspecified) | 55.4 µM
NC1(C(=O)O)CSSC1 | 2.66 µM
Cc1cc(Nc2cc(N3CCN(C)CC3)nc(C#Cc3ccccc3)n2)n[nH]1 | 1.24 µM
COc1ccc(-c2nn(-c3cccc(Cl)c3)cc2-c2cc(-c3cccs3)no2)cc1 | 3.34 µM

// switching to the query compound
**Query** Missing value: GI50, SK-MEL-2 melanoma, entry CCOc1cccc(/C=N/NC(=O)Cc2ccc(Nc3ccnc(C(F)(F)F)c3)cc2)c1O . Fill in?
**Result** 11.4 µM

###

- System: NCI-H23 lung
- EXPERIMENT_NOTES: NCI tumour cell line growth inhibition, 48 h
EXPERIMENTAL_ENDPOINT: TGI (µM)
One number for each entry, in µM.

Illustrative cases are given below, each with its answer.
COMPOUND | TGI, µM
O=C1c2c(Br)sc(Br)c2[C@H]2OC(=S)N[C@@H]12 | 15.1
COc1ccc(C2NC(=S)NC3=C2COc2ccc(F)cc23)cc1OC (stereo not given) | 34.2
O=C(Nc1nc2ccc(F)cc2s1)c1cccnc1Nc1ccc(Cl)cc1Cl | 9.56

// switching to the query compound
**Query** Value lookup for TGI; key = CCOC(=O)C(=Cc1c(-c2ccccc2)[nH]c2ccccc12)C(=O)OCC
**Result** 11.7
